- TARGET_OF_ASSAY: VBC (Homo sapiens, UniProt P40337+Q15369+Q15370)
- Construct: made in house; host or cells: E. coli BL21(DE3)
- Sequence (Q15369 17-112 limits assumed): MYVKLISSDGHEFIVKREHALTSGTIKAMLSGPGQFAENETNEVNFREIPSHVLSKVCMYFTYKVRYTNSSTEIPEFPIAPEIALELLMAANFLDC
- Sequence (P40337 54-213 partner limits assumed): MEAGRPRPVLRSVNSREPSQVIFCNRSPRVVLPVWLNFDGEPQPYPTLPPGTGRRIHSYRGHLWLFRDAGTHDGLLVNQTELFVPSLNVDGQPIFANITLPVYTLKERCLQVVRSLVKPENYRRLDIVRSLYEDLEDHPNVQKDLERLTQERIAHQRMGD
- Sequence (Q15370 1-104 partner limits assumed): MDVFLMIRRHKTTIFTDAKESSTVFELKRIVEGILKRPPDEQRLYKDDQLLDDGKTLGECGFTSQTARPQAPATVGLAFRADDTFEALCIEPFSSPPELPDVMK
- TEST: Biolayer interferometry (BLI) binding of peptides to immobilised VBC
- CONDITION_SET: 8-mer peptide variants replacing Leu3; BLI, biotinylated VBC on Super Streptavidin biosensor; peptides 27 µM to 7 mM; 20 mM HEPES pH 7.6, 100 mM NaCl, 1 mM DTT, 0.02% Tween-20, 25 °C; 1:1 model; read-out: K d
Square brackets hold non-standard residues; d marks the D form. Peptide text beside a SMILES is read from it. Chg = N[C@H](C(=O)O)C1CCCCC1; Phg = N[C@H](C(=O)O)c1ccccc1; Tle = CC(C)(C)[C@H](N)C(=O)O; Nva = CCC[C@H](N)C(=O)O
ASSAY_ENDPOINT: Kd (mM)
# unit: mM | format: bare number

Consider the reported Kd for these compounds:
CCC[C@H](NC(=O)[C@H](CO)NC(=O)[C@@H](N)CCSC)C(=O)N[C@@H](CCCCN)C(=O)N1CCC[C@H]1C(=O)N[C@@H](CCCNC(=N)N)C(=O)N[C@H](C(=O)N[C@H](C(N)=O)C(C)C)C(C)C [F] (H-MS[Nva]KPRVV-NH2): 1.9
CSCC[C@H](N)C(=O)N[C@@H](CO)C(=O)N[C@H](C(=O)N[C@@H](CCCCN)C(=O)N1CCC[C@H]1C(=O)N[C@@H](CCCNC(=N)N)C(=O)N[C@H](C(=O)N[C@H](C(N)=O)C(C)C)C(C)C)C1CCCCC1 [I] (H-MS[Chg]KPRVV-NH2): 8.9

The compound listed as CSCC[C@H](N)C(=O)N[C@@H](CO)C(=O)N[C@H](C(=O)N[C@@H](CCCCN)C(=O)N1CCC[C@H]1C(=O)N[C@@H](CCCNC(=N)N)C(=O)N[C@H](C(=O)N[C@H](C(N)=O)C(C)C)C(C)C)C(C)(C)C [G] (H-MS[Tle]KPRVV-NH2) has a reported Kd of 0.9

Kd measured on CSCC[C@H](N)C(=O)N[C@@H](CO)C(=O)N[C@H](C(=O)N[C@@H](CCCCN)C(=O)N1CCC[C@H]1C(=O)N[C@@H](CCCNC(=N)N)C(=O)N[C@H](C(=O)N[C@H](C(N)=O)C(C)C)C(C)C)c1ccccc1 [H] (H-MS[Phg]KPRVV-NH2) = 2.1

---

- TARGET_OF_ASSAY: VBC (Homo sapiens, UniProt P40337+Q15369+Q15370)
- Construct: made in house; host or cells: E. coli BL21(DE3)
- TEST: Biolayer interferometry (BLI) binding of peptides to immobilised VBC
Ends that are not written are not given here.
ASSAY_ENDPOINT: Kd

Kd in this record for "MSLKPRAV-NH2" : 2100 µM
